biological target: human mPGES-1 (Homo sapiens)
Sequence (O14684 whole entry): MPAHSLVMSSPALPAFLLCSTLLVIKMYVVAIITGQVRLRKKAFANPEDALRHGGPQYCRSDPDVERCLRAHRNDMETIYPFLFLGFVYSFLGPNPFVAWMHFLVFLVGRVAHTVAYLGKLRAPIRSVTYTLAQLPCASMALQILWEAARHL
reported.endpoint: IC50 (nM)

Example compounds with recorded IC50:
> print(dat)
                                   compound  numeric.value
1  CN1CCOc2cc(S(=O)(=O)Nc3ccccc3S(N)(=O)=O)ccc21 [Example 123]           9300
2  NS(=O)(=O)c1c(F)cccc1NS(=O)(=O)/C=C/c1ccc(-c2ccco2)cc1 [Example 36]             57
3  COc1ncc(-c2cccc(S(=O)(=O)Nc3ccsc3S(N)(=O)=O)c2)cc1Cl [Example 215]            740
4  NS(=O)(=O)c1ccc(F)cc1NS(=O)(=O)/C=C/c1ccc(OC(F)F)cc1 [Example 41]           1100
5  NS(=O)(=O)c1ccccc1NS(=O)(=O)/C=C/c1ccc(Br)cc1 [Example 106]             74

(P) N#Cc1ccc(/C=C/S(=O)(=O)Nc2cc(F)ccc2S(N)(=O)=O)cc1 [Example 30]
(Q) C[C@@](O)(C(=O)Nc1ccc(S(=O)(=O)Nc2ccccc2S(N)(=O)=O)cc1Cl)C(F)(F)F [Example 158]
(R) NS(=O)(=O)c1cccc(F)c1NS(=O)(=O)/C=C/c1cccc(C(F)(F)F)c1 [Example 65]
(S) NS(=O)(=O)c1ccccc1NS(=O)(=O)c1ccc(-c2ccc(Cl)c(Cl)c2)cc1 [Example 173]
Query string: Sort (4 compounds) by IC50: min first. Please, when replying, give the labels in the order that was requested.
Result string: S, R, P, Q

(A) Cc1ccc(NS(=O)(=O)c2cccc(-c3ccc(Cl)c(Cl)c3)c2)c(S(N)(=O)=O)c1 [Example 150]
(B) Cc1ccc(S(N)(=O)=O)c(NS(=O)(=O)CCc2ccc(Cl)c(Cl)c2)c1 [Example 200]
(C) NS(=O)(=O)c1ccccc1NS(=O)(=O)c1cccc(-c2cccc(OC(F)(F)F)c2)c1 [Example 121]
(D) NS(=O)(=O)c1ccccc1NS(=O)(=O)c1cccc(-c2cncc(Cl)c2)c1 [Example 168]
(E) NS(=O)(=O)c1ccccc1NS(=O)(=O)/C=C/c1c(Cl)cccc1Cl [Example 81]
Query string: Output the entries ranked by IC50 from maximum down to minimum. Please, when replying, give the labels in the order that was requested.
Result string: A, E, B, D, C
(A: 4200 nM, E: 2900 nM, B: 1400 nM, D: 630 nM, C: 220 nM)

(A) COc1cc(Cl)ccc1CCS(=O)(=O)Nc1ccc(Cl)cc1S(N)(=O)=O [Example 194]
(B) C/C(=C\c1ccc(Cl)cc1)S(=O)(=O)Nc1ccccc1S(N)(=O)=O [Example 9]
Query string: I would appreciate it if you could say which entry, A or B , has the lower IC50 value. Use the label to indicate which entry you chose.
Result string: B
